- Test system: T-47D breast
- Test summary: NCI-60 one-dose screen, 48 h
- Assay setup: 10 µM unless noted
This is part of a sample that, as a whole, favours compounds with a hit. Of some 83,000 tested, about 20% had one in any assay. Calls of active or inactive are those of the source. The calls were made as follows: active = growth percent below 10; inactive = the rest.
Outcome codes: YES (active), NO (inactive)

>>> answer_label("COc1ncc(-c2ccc3nccc(C#CCCCCC(=O)NO)c3c2)cc1NS(=O)(=O)c1ccc(F)cc1F")
"YES"
>>> answer_label("COc1ccc(C2CC(c3cc(OC)c(OC)c(OC)c3)=NN2C(C)=O)cc1OCC(=O)Nc1nc2ccc(C(F)(F)F)cc2s1 (stereo not given)")
"NO"
>>> answer_label("CCCCOC(=O)c1cccc([N+](=O)[O-])c1")
"NO"
>>> answer_label("CCCCCn1sc(=O)n(Cc2ccc(CNC(=O)OCc3ccc4cccc(O)c4n3)cc2)c1=O")
"YES"
>>> answer_label("O=C(CCCSc1nc(-c2ccccc2)cc(-c2ccccc2)n1)NO")
"YES"

* * *

- Test system: K-562 leukemia
- Test summary: NCI-60 one-dose screen, 48 h (100 = growth as untreated, 0 = no growth, -100 = all killed)
- Assay setup: 10 µM unless noted
The panel holds about 83,000 compounds, 20% with a hit somewhere; the sample as a whole holds those more often.
Result type: growth (%)

>>> numeric_readout("O=C1/C(=C/c2cccc(OCc3ccccc3)c2)Oc2cc(OCCN3CCCCC3)ccc21")
-37.8
>>> numeric_readout("CC1Cc2c(ncnc2-n2cnc3ccccc32)N(C)c2ccccc21 (stereo not given)")
15.5
>>> numeric_readout("COc1ccc(C2=C(c3cn(C)c4ccccc34)C(=O)OC2)cc1OC")
18
>>> numeric_readout("CC/C=C(\\C)C(CCC)(CN=O)C(=O)OCC (stereo not given)")
114
>>> numeric_readout("O=C1/C(=C\\c2cn(CC(O)CN3CCCCC3)c3ccccc23)c2ccccc2N1c1c(Cl)cccc1Cl (stereo not given)")
-35.6

* * *

- System: NCI-H322M lung
- Test summary: NCI-60 one-dose screen, 48 h
- Assay setup: 10 µM unless noted
Compounds without any hit were thinned out: in the full panel of roughly 83,000, 20% have a hit. The source made the active and inactive calls. Rule for the calls: active = growth percent below 10; inactive = the rest.
Outcome codes: T for active, F for inactive

>>> answer_label("CSc1nc2c(c(=O)n1C)C1(C(=O)N(Cc3ccccc3)c3ccccc31)c1c(nc(SC)n(C)c1=O)N2")
"F"
>>> answer_label("N#CCCc1c[nH]c2ccccc12")
"F"
>>> answer_label("N#CC1C(=O)NC(c2ccccc2[N+](=O)[O-])c2sc3c(F)cccc3c21 (centres undefined)")
"F"
>>> answer_label("CC(=O)OC[C@]12CC[C@@H](C(=O)CBr)[C@@H]1[C@H]1CC[C@@H]3[C@@]4(C)CCCNC(C)(C)[C@@H]4CC[C@@]3(C)[C@]1(C)CC2")
"T"
>>> answer_label("COC(=O)C(=Cc1ccccc1[N+](=O)[O-])C(=O)OC")
"F"
>>> answer_label("Cn1c(=O)c(C#N)c(-c2ccco2)n2c(S(=O)(=O)Cc3ccccc3)nnc12")
"F"
>>> answer_label("CCN(CC)c1ccc2cc(C(Nc3ccc(Br)c(C(F)(F)F)c3)c3nnnn3C(C)(C)C)c(=O)oc2c1 (centres undefined)")
"F"
>>> answer_label("CCCN1CC(c2ccc(OC)c(OC)c2)=C(c2cn(C(=O)OCC)c3ccccc23)C1=O")
"F"
>>> answer_label("COc1ccc(C(=O)CCC(=O)O)cc1")
"F"

Where these numbers come from: PubChem BioAssay (NCI)
